# target-under-test: recombinant human IL-21 (rhIL-21) (human, UniProt Q9HBE4 30-162, limits assumed)
# Sequence (Q9HBE4 30-162 limits assumed): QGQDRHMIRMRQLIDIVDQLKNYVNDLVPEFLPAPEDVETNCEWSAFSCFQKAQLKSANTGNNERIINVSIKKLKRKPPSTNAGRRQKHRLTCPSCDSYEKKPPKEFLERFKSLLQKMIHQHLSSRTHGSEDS
# assay-protocol: cell-based or functional assay
quantity: % pSTAT3+ Jurkat cells, 0.1 nM rhIL-21 + 0.4015 nM antibody (%)
The reply should contain only the number, in %.

>>> endpoint_result("FYP014 (antibody, human IgG1, V domains shown, human IgG1; also called EP3103813A1 clone 366.328.10.63) VH: EVQLVESGGGLVKPGGSLRLSCAASGFIFSSYSMNWVRQAPGKGLEWVSSITSGSYYIHYADSVKGRFTISRDNAKNSLYLQMNSLRAEDTAVYYCVRERGWGYYGMDVWGQGTTVTVSS VL: AIQLTQSPSSLSASVGDRVTITCRASQDIDSALAWYQQKPGKAPKILIHDASSLESGVPSRFSGSGSGTDFTLTISSLQPEDFATYYCQQFNSYPYTFGQGTKLEIK")
4.39

Quick one: % pSTAT3+ Jurkat cells, 0.1 nM rhIL-21 + 0.4015 nM antibody for LKK631 (antibody, human IgG1, V domains shown) VH: EVQLQQFGAEVVKPGASVKMSCKASGYTFTDYNMNWVKQSHEKSLEWIGDIHPKFHSTNYNQKFKGKATLTIDTSSSTAYMELRNLTSEDTAVYYCARVGNYVYFVMDYWGQGTSVTVSS VL: SIVMTQTPKFLLVSAGDRVTITCKASQSVSNDVAWYQQKPGQSPKLLIYYASNRYTGVPDRFSGSGYGTDFTFTISTVQAEDLAVYFCQQDYTSPWTFGGGTKLEIK ?
71.5

Try this binder next: ZAP122 (antibody, human IgG1, V domains shown) VH: QVQLQESGPGLVKPSETLSLTCTVSGGSISSDFWGWIRQPPGKGLEWIGYISSRGSTNYNPSLKRRVTISVDTSRNQFSLKLSSVTAADTAVYYCARSAGVTDFDFWGQGTLVTVSS VL: DIQMTQSPSSVSASVGDRVTITCRASQGISSWLAWYQHKPGKAPKLLIYVASSLQSGVPSRFSGSGSGTDFTLTISSLQPEDFATYYCQQANSFPLTFGGGTKVEIK
22.8
